# credit: patent US20040024024A1

target_or_system: Human recombinant MMP-9 (Homo sapiens, UniProt P14780)
Construct: made in house; host or cells: MMP-9-transfected HT1080 cells (spent media)
Sequence (P14780 107-707 limits assumed): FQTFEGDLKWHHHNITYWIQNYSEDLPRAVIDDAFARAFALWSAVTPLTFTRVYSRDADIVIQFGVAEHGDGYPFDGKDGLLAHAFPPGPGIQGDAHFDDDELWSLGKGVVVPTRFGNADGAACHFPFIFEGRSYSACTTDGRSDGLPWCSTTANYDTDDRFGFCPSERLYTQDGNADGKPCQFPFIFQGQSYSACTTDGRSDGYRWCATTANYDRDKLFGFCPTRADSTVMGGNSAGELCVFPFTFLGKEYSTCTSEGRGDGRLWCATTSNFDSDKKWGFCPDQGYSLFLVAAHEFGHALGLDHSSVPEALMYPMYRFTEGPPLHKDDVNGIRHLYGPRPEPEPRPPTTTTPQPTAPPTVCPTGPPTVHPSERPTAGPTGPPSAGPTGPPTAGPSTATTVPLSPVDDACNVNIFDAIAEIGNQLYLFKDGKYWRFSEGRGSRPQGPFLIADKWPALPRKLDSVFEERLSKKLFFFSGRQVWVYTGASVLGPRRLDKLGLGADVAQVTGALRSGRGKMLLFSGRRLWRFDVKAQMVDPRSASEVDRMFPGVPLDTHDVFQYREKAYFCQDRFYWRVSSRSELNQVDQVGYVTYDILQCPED
experiment: In vitro MMP inhibition, IC50 determination (fluorogenic substrate I)
Assay type: biochemical
particulars: value outside parentheses
pIC50: −log10 of the molar value.

- chemical_structure: "O=C(NCCSc1ccc(S(=O)(=O)C2(C(=O)NO)CCOCC2)cc1)c1nc2ccccc2o1"
  pIC50: 6.40
- chemical_structure: "O=C(NO)C1(S(=O)(=O)c2ccc(OCCCOCc3cccnc3)cc2)CCOCC1"
  pIC50: 7.44
- chemical_structure: "COc1ccc(C(=O)CCCOc2ccc(S(=O)(=O)C3(C(=O)NO)CCOCC3)cc2)cc1"
  pIC50: 7.03
- chemical_structure: "O=C(NO)C1(S(=O)(=O)c2ccc(OCCCc3cc(-c4ccc(F)cc4F)cs3)cc2)CCOCC1"
  pIC50: 5.86
- chemical_structure: "O=C(Cc1csc2ccccc12)NCCOc1ccc(S(=O)(=O)C2(C(=O)NO)CCOCC2)cc1"
  pIC50: 6.71
- chemical_structure: "O=C(NO)C1(S(=O)(=O)c2ccc(OCCOCc3ccncc3)cc2)CCOCC1"
  pIC50: 6.92
- chemical_structure: "O=C(NO)C1(S(=O)(=O)c2ccc(OCCOCc3cccc(OC(F)(F)F)c3)cc2)CCOCC1"
  pIC50: 7.08
- chemical_structure: "O=C(NO)C1(S(=O)(=O)c2ccc(OCCOCc3ccccn3)cc2)CCOCC1"
  pIC50: 6.81
- chemical_structure: "O=C(NO)C1(S(=O)(=O)c2ccc(OCCCc3cc(-c4ccc(F)c(F)c4)cs3)cc2)CCOCC1"
  pIC50: 6.38
- chemical_structure: "COC(=O)c1ccc(OCCOc2ccc(S(=O)(=O)C3(C(=O)NO)CCOCC3)cc2)cc1"
  pIC50: 6.89
- chemical_structure: "CN(C)C(=O)c1cccc(OCCOc2ccc(S(=O)(=O)C3(C(=O)NO)CCOCC3)cc2)c1"
  pIC50: 5.35
- chemical_structure: "COc1ccc(-c2nnc(CCCOc3ccc(S(=O)(=O)C4(C(=O)NO)CCOCC4)cc3)o2)cc1"
  pIC50: 5.11
- chemical_structure: "O=C(Cc1ccsc1)NCCOc1ccc(S(=O)(=O)C2(C(=O)NO)CCOCC2)cc1"
  pIC50: 7.37
- chemical_structure: "CC(=O)c1cccc(OCCOc2ccc(S(=O)(=O)C3(C(=O)NO)CCOCC3)cc2)c1"
  pIC50: 6.05
- chemical_structure: "CCN1CCC(C(=O)NO)(S(=O)(=O)c2ccc(OCCCSc3nc4ccccc4s3)cc2)CC1"
  pIC50: 7.92
- chemical_structure: "O=C(NO)C1(S(=O)(=O)c2ccc(OCCOCC3CC3)cc2)CCOCC1"
  pIC50: 7.16

* * *

target_or_system: Human recombinant MMP-9 (Homo sapiens)
Construct: made in house; host or cells: MMP-9-transfected HT1080 cells (spent media)
experiment: In vitro MMP inhibition, Ki determination (fluorogenic substrate II)
Type: biochemical
particulars: value in parentheses
pKi: −log10 of the molar value.
Overview of recorded pKi for various molecules

- chemical_structure: "O=C(NO)C1(S(=O)(=O)c2ccc(OCCCc3cccc(-c4cccs4)c3)cc2)CCOCC1"
  pKi: 5.69
- chemical_structure: "COCCN1CCC(C(=O)NO)(S(=O)(=O)c2ccc(OCCc3cccc(-c4ccc(Cl)cc4)c3)cc2)CC1"
  pKi: 5.73
- chemical_structure: "O=C(NO)C1(S(=O)(=O)c2ccc(OCCCc3cccc(-c4ccc5c(c4)OCO5)c3)cc2)CCOCC1"
  pKi: 5.71
- chemical_structure: "Cc1ccc(NC(=O)CCCOc2ccc(S(=O)(=O)C3(C(=O)NO)CCOCC3)cc2)cc1I"
  pKi: 7.52
- chemical_structure: "CCCc1ccc(COc2ccc(S(=O)(=O)C3(C(=O)NO)CCOCC3)cc2)cn1"
  pKi: 8.12
- chemical_structure: "COCCN1CCC(C(=O)NO)(S(=O)(=O)c2ccc(OCCc3cccc(-c4ccccc4F)c3)cc2)CC1"
  pKi: 6.16
- chemical_structure: "O=C(NCCOc1ccc(S(=O)(=O)C2(C(=O)NO)CCOCC2)cc1)c1cc2ccccc2[nH]1"
  pKi: 7.95
